Cited source for all entries: patent US20230016424A1

protocol-text: Liver Microsome stability (In Vitro Metabolism)
Type: in vitro ADME
condition-parameters: Human liver microsomes, no cofactor 60 min
value-type: Remaining (T = NCF60 min) (%)

{"compound": "COC(=O)C(Cc1c[nH]cn1)NC(=O)C1C(O)CC2(O)CC(O)CC(O)C(O)CCC(O)CC(O)CC(=O)OC(C)C(C)C(O)C(C)C=CC=CC=CC=CC=CC=CC=CC(OC3OC(C)C(O)C(N)C3O)CC1O2 (centres unmarked) [AL]", "recorded-result": 96.8}
{"compound": "CNC(=O)C1C(O)CC2(O)CC(O)CC(O)C(O)CCC(O)CC(O)CC(=O)OC(C)C(C)C(O)C(C)C=CC=CC=CC=CC=CC=CC=CC(OC3OC(C)C(O)C(N)C3O)CC1O2 (centres unmarked) [AN]", "recorded-result": 127}
{"compound": "CC1C=CC=CC=CC=CC=CC=CC=CC(OC2OC(C)C(O)C(N)C2O)CC2OC(O)(CC(O)CC(O)C(O)CCC(O)CC(O)CC(=O)OC(C)C(C)C1O)CC(O)C2C(=O)NCCN (centres unmarked) [AM]", "recorded-result": 115}
{"compound": "CC1C=CC=CC=CC=CC=CC=CC=CC(OC2OC(C)C(O)C(N)C2O)CC2OC(O)(CC(O)CC(O)C(O)CCC(O)CC(O)CC(=O)OC(C)C(C)C1O)CC(O)C2C(=O)NCCO (centres unmarked) [Compound AA]", "recorded-result": 142}
{"compound": "C[C@@H]1[C@H](O)[C@@H](C)/C=C/C=C/C=C/C=C/C=C/C=C/C=C/[C@H](OC2O[C@H](C)[C@@H](O)[C@H](N)[C@@H]2O)C[C@@H]2O[C@](O)(C[C@@H](O)C[C@@H](O)[C@H](O)CC[C@@H](O)C[C@@H](O)CC(=O)O[C@H]1C)C[C@H](O)[C@H]2C(=O)O (some centres unmarked) [AmB, Amphotericin B]", "recorded-result": 104}
